# test-target: PCSK9 (Homo sapiens)
# Sequence (Q8NBP7 153-692): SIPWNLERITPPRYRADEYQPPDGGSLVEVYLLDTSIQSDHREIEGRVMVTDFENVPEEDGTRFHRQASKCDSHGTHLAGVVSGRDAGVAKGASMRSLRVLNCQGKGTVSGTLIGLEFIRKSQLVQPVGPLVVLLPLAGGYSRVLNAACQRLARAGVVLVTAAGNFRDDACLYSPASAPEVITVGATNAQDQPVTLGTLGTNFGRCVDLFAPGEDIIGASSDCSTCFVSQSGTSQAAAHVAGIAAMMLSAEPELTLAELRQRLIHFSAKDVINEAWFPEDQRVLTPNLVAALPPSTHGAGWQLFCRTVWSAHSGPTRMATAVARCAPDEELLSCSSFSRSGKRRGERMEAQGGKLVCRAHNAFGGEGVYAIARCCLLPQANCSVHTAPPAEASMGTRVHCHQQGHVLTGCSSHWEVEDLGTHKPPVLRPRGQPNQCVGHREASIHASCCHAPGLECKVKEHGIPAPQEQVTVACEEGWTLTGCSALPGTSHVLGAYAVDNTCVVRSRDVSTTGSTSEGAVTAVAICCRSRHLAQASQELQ
# Sequence (Q8NBP7 31-152 partner limits assumed): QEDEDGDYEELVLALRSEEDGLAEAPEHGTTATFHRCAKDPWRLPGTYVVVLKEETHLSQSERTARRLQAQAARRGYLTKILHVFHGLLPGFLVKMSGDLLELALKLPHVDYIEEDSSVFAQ
# test-details: PCSK9-LDLR in vitro Binding Assay (ELISA)
# run-conditions: Concentration 100 μM
# Procedure: The PCSK9-LDLR in vitro Binding Assay is a quantitative solid phase binding assay between PCSK9 and recombinant LDLR. Plates were pre-coated with a recombinant LDLR-AB domain, which binds PCSK9. […] The amount of bound PCSK9 is measured by binding it with biotinylated anti-His-tag monoclonal antibody, followed by binding with horseradish peroxidase conjugated streptavidin substrate. […] EC50 values were calculated by nonlinear regression analysis using graph pad prism software. […]
% Inhibition PCSK9 below 20% gives 0 (no); % Inhibition PCSK9 at or above it gives 1 (yes).

- Cc1oc(-c2ccccc2)nc1CC1COC(C)(C(=O)N2CCCCC2)OC1 (centres unmarked) [Example 15]: 0 (no)
- Cc1oc(-c2ccccc2)nc1CC1COC(C)(C(=O)NCC2CCOCC2)OC1 (centres unmarked) [Example 9]: 0 (no)
- Cc1oc(-c2ccccc2)nc1CC1COC(C)(C(=O)NCCC(=O)N2CCS(=O)(=O)CC2)OC1 (centres unmarked) [Example 29]: 0 (no)
- Cc1oc(-c2ccccc2)nc1CCC1COC(C)(C(=O)NCC2CCOCC2)OC1 (centres unmarked) [Example 38]: 1 (yes)
- Cc1oc(-c2ccccc2)nc1CC1COC(C)(C(=O)NCC(=O)N2CCCCC2)OC1 (centres unmarked) [Example 22]: 0 (no)
- Cc1oc(-c2ccncc2)nc1CC1COC(C)(C(=O)N2CCOCC2)OC1 (centres unmarked) [Example 83]: 1 (yes)
- Cc1oc(-c2ccccc2)nc1CC1COC(C)(C(=O)N2CCN(C)CC2)OC1 (centres unmarked) [Example 14]: 0 (no)
- Cc1oc(-c2ccccc2)nc1CC1COC(C)(C(=O)NCC(=O)NCC2CCOCC2)OC1 (centres unmarked) [Example 25]: 0 (no)
- Cc1oc(-c2ccccc2)nc1CCC1COC(C)(C(=O)NCC(=O)N2CCOCC2)OC1 (centres unmarked) [Example 49]: 0 (no)
- Cc1oc(-c2ccccc2)nc1CC1COC(C)(C(=O)NCC(=O)N2CCSCC2)OC1 (centres unmarked) [Example 23]: 1 (yes)
- Cc1oc(-c2ccccc2)nc1CC1COC(C)(C(=O)N2CCSCC2)OC1 (centres unmarked) [Example 16]: 0 (no)
- Cc1oc(-c2ccccc2)nc1CCC1COC(C)(C(=O)N2CCS(=O)(=O)CC2)OC1 (centres unmarked) [Example 46]: 0 (no)
- Cc1oc(-c2ccccc2)nc1CCC1COC(C)(C(=O)NCC(=O)N2CCN(C)CC2)OC1 (centres unmarked) [Example 51]: 1 (yes)
- Cc1oc(-c2ccccc2)nc1CCC1COC(C)(C(=O)N2CCOCC2)OC1 (centres unmarked) [Example 41]: 0 (no)
- Cc1oc(-c2ccccc2)nc1CCC1COC(C)(C(=O)N2CCN(C)CC2)OC1 (centres unmarked) [Example 43]: 0 (no)
- Cc1oc(-c2ccccc2)nc1CC1COC(C)(C(=O)NCC(=O)N2CCOCC2)OC1 (centres unmarked) [Example 19]: 1 (yes)
- Cc1ccc(-n2nc(C(C)(C)C)cc2CC2COC(C)(C(=O)NO)OC2)cc1 (centres unmarked) [Example 99]: 1 (yes)

Source of measurements: patent US20120252796A1
